Target: horseradish peroxidase (HRP) tagged delF508-CFTR (Homo sapiens, UniProt P13569, DEL508-508)
Construct: expressed in transfected cells
Sequence (P13569 with tags, fused parts or gaps DEL508-508): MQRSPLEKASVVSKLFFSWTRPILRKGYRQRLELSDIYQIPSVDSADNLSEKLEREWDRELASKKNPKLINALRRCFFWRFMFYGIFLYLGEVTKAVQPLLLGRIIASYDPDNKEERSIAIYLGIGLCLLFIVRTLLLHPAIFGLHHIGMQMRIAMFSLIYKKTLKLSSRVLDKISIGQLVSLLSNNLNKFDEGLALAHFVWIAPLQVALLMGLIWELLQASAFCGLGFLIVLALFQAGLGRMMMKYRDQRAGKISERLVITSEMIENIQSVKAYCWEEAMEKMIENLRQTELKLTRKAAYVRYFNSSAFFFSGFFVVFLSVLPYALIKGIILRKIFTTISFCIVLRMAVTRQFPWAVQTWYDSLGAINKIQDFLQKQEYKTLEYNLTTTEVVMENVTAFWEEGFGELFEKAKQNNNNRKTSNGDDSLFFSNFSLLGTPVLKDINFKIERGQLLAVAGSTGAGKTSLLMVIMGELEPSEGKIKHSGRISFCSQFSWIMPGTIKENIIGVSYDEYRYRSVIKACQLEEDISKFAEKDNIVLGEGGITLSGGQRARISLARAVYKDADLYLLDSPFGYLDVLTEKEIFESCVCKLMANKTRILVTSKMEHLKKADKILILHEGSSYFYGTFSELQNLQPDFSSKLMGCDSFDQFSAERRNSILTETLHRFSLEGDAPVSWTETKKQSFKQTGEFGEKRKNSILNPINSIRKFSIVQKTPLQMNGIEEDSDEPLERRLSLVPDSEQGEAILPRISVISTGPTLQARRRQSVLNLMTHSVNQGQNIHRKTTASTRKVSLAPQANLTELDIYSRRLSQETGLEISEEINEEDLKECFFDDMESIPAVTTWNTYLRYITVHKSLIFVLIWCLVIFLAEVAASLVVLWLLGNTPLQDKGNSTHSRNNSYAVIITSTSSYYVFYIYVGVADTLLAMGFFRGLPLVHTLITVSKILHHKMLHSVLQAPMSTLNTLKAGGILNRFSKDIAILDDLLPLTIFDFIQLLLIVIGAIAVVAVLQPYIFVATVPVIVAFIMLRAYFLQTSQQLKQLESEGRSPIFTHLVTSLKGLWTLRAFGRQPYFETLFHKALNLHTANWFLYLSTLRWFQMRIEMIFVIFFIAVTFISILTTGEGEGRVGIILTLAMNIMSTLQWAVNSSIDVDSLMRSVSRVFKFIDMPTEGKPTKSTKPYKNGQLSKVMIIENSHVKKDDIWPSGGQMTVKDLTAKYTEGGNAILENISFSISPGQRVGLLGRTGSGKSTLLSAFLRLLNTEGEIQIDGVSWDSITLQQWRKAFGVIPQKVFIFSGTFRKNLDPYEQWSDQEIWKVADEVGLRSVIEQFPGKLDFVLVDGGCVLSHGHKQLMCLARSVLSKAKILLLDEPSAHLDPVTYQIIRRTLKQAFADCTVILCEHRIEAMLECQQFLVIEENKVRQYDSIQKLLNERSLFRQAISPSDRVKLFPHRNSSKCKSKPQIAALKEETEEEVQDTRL
Test: Measurement of delF508-CFTR-HRP surface expression in CFBE41o- cells;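 also: percent efficacy relative to reference corrector lumacaftor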
Format: cell-based
Conditions: delF508-CFTR-HRP surface expression, CFBE41o- cells; read-out: DelF508-CFTR-HRP Amax %
Counter-ions that a name gives are not always drawn.

{"COMPOUND": "Nc1cccc(S(=O)(=O)Nc2ccc(Cl)c(-c3ccccc3C(F)F)n2)n1", "Emax": "220%"}
{"COMPOUND": "Cc1cccc(C)c1-c1cc(C(F)(F)F)cc(NS(=O)(=O)c2cccc(N3CCN(C(=O)OC(C)(C)C)CC3)n2)n1", "Emax": "894%"}
{"COMPOUND": "Cc1c(F)cccc1-c1nc(NS(=O)(=O)c2cccc(N3CCN(C(C)(C)C)CC3)n2)ccc1C(F)(F)F", "Emax": "418%"}
{"COMPOUND": "Nc1cccc(S(=O)(=O)Nc2ccc(Cl)c(-c3ccc(C(F)(F)F)cc3)n2)n1", "Emax": "20.3%"}
{"COMPOUND": "COc1ccc(NS(=O)(=O)c2cccc(N)n2)nc1-c1c(C)cccc1C [Example 72, hydrochloride]", "Emax": "193%"}
{"COMPOUND": "Cc1ccccc1-c1nc(NS(=O)(=O)c2cccc(N3CCN(C(=O)OC(C)(C)C)[C@@H](C(=O)O)C3)n2)ccc1C(F)(F)F", "Emax": "542%"}

* * *

Biological target: horseradish peroxidase (HRP) tagged delF508-CFTR (Homo sapiens, UniProt P13569, DEL508-508)
Construct: expressed in transfected cells
Assay: Measurement of delF508-CFTR-HRP surface expression in CFBE41o- cells;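 also: percent efficacy relative to reference corrector lumacaftor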
Type: cell-based
Details: CFBE41o- cells; surface expression Amax; read-out: DelF508-CFTR-HRP Amax %
Description: Measurement of delF508-CFTR-HRP Surface Expression in CFBE41o-Cells This assay quantifies the cell surface expressions of the mutant CFTR channel using an extracellular HRP tag. […] The median activity for the lowest concentration of the compounds on each assay plate was calculated and this value was used to normalize the signal for each well on the respective plate. […] The median value was determined and used to calculate compound activities as described below. […]
Listed here: items and their measured Emax.

{"MOLECULE": "C[C@@]1(C(=O)O)CCCN(c2cccc(S(=O)(=O)Nc3ccc(Cl)c(-c4ccccc4C4CCC4)n3)n2)C1", "UNIT": "%", "Emax": 503}
{"MOLECULE": "CC(C)COc1ccccc1-c1nc(NS(=O)(=O)c2cccc(N3CCC(C)(C(=O)O)CC3)n2)ccc1Cl", "UNIT": "%", "Emax": 303}
{"MOLECULE": "CCCC1(C(=O)O)CCCN(c2cccc(S(=O)(=O)Nc3ccc(C(F)(F)F)c(-c4ccccc4C)n3)n2)C1 (stereo not drawn)", "UNIT": "%", "Emax": 639}
{"MOLECULE": "COc1ccc(Cl)cc1-c1nc(NS(=O)(=O)c2cccc(N3CCC(C)(C(=O)O)CC3)n2)ccc1C(F)(F)F", "UNIT": "%", "Emax": 287}
{"MOLECULE": "CC(C)c1ccccc1-c1nc(NS(=O)(=O)c2cccc(N3CCC[C@@](C)(C(=O)O)C3)n2)ccc1Cl", "UNIT": "%", "Emax": 460}
{"MOLECULE": "Cc1ccc(F)cc1-c1nc(NS(=O)(=O)c2cccc(N3CCCC4(CC4C(=O)O)C3)n2)ccc1C(F)(F)F (stereo not drawn)", "UNIT": "%", "Emax": 264}
{"MOLECULE": "Cc1ccccc1-c1nc(NS(=O)(=O)c2cccc(N[C@@H]3C[C@@]4(C(=O)O)CC[C@@H]3O4)n2)ccc1C(F)(F)F (racemic)", "UNIT": "%", "Emax": 64.3}
{"MOLECULE": "CCC[C@@H]1CCN(c2cccc(S(=O)(=O)Nc3ccc(Cl)c(-c4cccnc4C(C)C)n3)n2)[C@H]2C[C@H](C(=O)O)[C@@H]12 (racemic)", "UNIT": "%", "Emax": 734}
{"MOLECULE": "CC(C)c1ccccc1-c1nc(NS(=O)(=O)c2cccc(N[C@H]3CCC[C@H](C(=O)O)C3)n2)ccc1C(F)(F)F", "UNIT": "%", "Emax": 644}
{"MOLECULE": "C[C@]1(C(=O)O)CCCN(c2cccc(S(=O)(=O)Nc3ccc(C(F)(F)F)c(-c4ccccc4C4CC4)n3)n2)C1", "UNIT": "%", "Emax": 541}
{"MOLECULE": "CCCC1(C(=O)O)CCCN(c2cccc(S(=O)(=O)Nc3ccc(Cl)c(-c4c(C)cccc4C)n3)n2)C1 (stereo not drawn)", "UNIT": "%", "Emax": 702}
{"MOLECULE": "CC(C)COc1ccccc1-c1nc(NS(=O)(=O)c2cccc(N3CCC(C)(C(=O)O)CC3)n2)ccc1C(F)(F)F", "UNIT": "%", "Emax": 504}
{"MOLECULE": "CC1(C(=O)O)CCN(c2cccc(S(=O)(=O)Nc3ccc(C(F)(F)F)c(-c4ccccc4OCC(F)(F)F)n3)n2)CC1", "UNIT": "%", "Emax": 284}
{"MOLECULE": "O=C(O)C1CC12CCN(c1cccc(S(=O)(=O)Nc3ccc(C(F)(F)F)c(-c4ccccc4C4CC4)n3)n1)C2 (stereo not drawn)", "UNIT": "%", "Emax": 705}
{"MOLECULE": "CCC1(C(=O)O)CCCN(c2cccc(S(=O)(=O)Nc3ccc(Cl)c(-c4ccccc4C)n3)n2)C1 (stereo not drawn)", "UNIT": "%", "Emax": 990}
{"MOLECULE": "CC1(C(=O)O)CCCN(c2cccc(S(=O)(=O)Nc3ccc(Cl)c(-c4ccccc4C(C)(C)C)n3)n2)C1 (stereo not drawn)", "UNIT": "%", "Emax": 889}
{"MOLECULE": "CC1(C(=O)O)CCCN(c2cccc(S(=O)(=O)Nc3ccc(C(F)(F)F)c(-c4ccccc4C4CC4)n3)n2)C1 (stereo not drawn)", "UNIT": "%", "Emax": 729}
{"MOLECULE": "CC(C)c1ccccc1-c1nc(NS(=O)(=O)c2cccc(N3CCC[C@](C)(C(=O)O)C3)n2)ccc1C(F)(F)F", "UNIT": "%", "Emax": 668}
{"MOLECULE": "Cc1ccc(Cl)cc1-c1nc(NS(=O)(=O)c2cccc(N3CCC(C)(C(=O)O)CC3)n2)ccc1C(F)(F)F", "UNIT": "%", "Emax": 847}
{"MOLECULE": "COc1ccc(Cl)cc1-c1nc(NS(=O)(=O)c2cccc(N3CCCC(C)(C(=O)O)C3)n2)ccc1C(F)(F)F (stereo not drawn)", "UNIT": "%", "Emax": 596}
{"MOLECULE": "Cc1ccccc1-c1nc(NS(=O)(=O)c2cccc(N3CCCC4(CC4C(=O)O)C3)n2)ccc1C(F)(F)F (stereo not drawn)", "UNIT": "%", "Emax": 299}

* * *

Target: horseradish peroxidase (HRP) tagged delF508-CFTR (Homo sapiens, UniProt P13569, DEL508-508)
Construct: expressed in transfected cells
Assay: Measurement of delF508-CFTR-HRP surface expression in CFBE41o- cells;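 also: percent efficacy relative to reference corrector lumacaftor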
Format: cell-based
Conditions: delF508-CFTR-HRP surface expression, CFBE41o- cells; read-out: DelF508-CFTR-HRP Amax %
Structures can show the parent of a compound that is named as a salt.

{"COMPOUND": "Cc1c(F)cccc1-c1nc(NS(=O)(=O)c2ccnc(N3CC(O)C3)c2)ccc1Cl [Example 323]", "Emax": "252%"}
{"COMPOUND": "Cc1ccc(C(F)(F)F)cc1-c1nc(NS(=O)(=O)c2cccc(N3CCNCC3)n2)ccc1Cl [Example 169, Hydrochloride]", "Emax": "182%"}
{"COMPOUND": "Cc1ccccc1-c1nc(NS(=O)(=O)c2cccc(N3CC4(C3)OCCC4N)n2)ccc1C(F)(F)F (stereo not shown) [Example 303]", "Emax": "491%"}
{"COMPOUND": "Cc1c(C#N)cccc1-c1nc(NS(=O)(=O)c2cccc(N3CC(C)(O)C3)n2)ccc1Cl [Example 309]", "Emax": "194%"}
{"COMPOUND": "Cc1c(F)cccc1-c1nc(NS(=O)(=O)c2cccc(N3CC(O)C3)n2)ccc1C(F)(F)F [Example 216]", "Emax": "446%"}
{"COMPOUND": "CC1(O)CN(c2cccc(S(=O)(=O)Nc3ccc(Cl)c(-c4ccc(F)cc4Cl)n3)n2)C1 [Example 213]", "Emax": "224%"}
{"COMPOUND": "Nc1cccc(S(=O)(=O)Nc2ccc(Cl)c(-c3ccccc3C(F)(F)F)n2)n1 [Example 55]", "Emax": "305%"}

* * *

Target: horseradish peroxidase (HRP) tagged delF508-CFTR (Homo sapiens, UniProt P13569, DEL508-508)
Construct: expressed in transfected cells
Test: Measurement of delF508-CFTR-HRP surface expression in CFBE41o- cells;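 also: percent efficacy relative to reference corrector lumacaftor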
Assay type: cell-based
Conditions: delF508-CFTR-HRP surface expression, CFBE41o- cells; read-out: DelF508-CFTR-HRP Amax %
Where a name gives a salt, the structure may show the parent alone.
Lab note: anything with Emax below 200% is marked True; values at 200% or higher are marked False.

{"MOLECULE": "CC(C)c1ccccc1-c1nc(NS(=O)(=O)c2cccc(N3CCC[C@H](C(=O)O)C3)n2)ccc1C(F)(F)F", "GROUP_LABEL": "False"}
{"MOLECULE": "Nc1cccc(S(=O)(=O)Nc2ccc(C(F)(F)F)c(-c3cccc(C(F)(F)F)c3)n2)n1", "GROUP_LABEL": "True"}
{"MOLECULE": "Cc1ccc(C#N)cc1-c1nc(NS(=O)(=O)c2cccc(N)n2)ccc1C(F)(F)F", "GROUP_LABEL": "True"}
{"MOLECULE": "Cc1ccccc1-c1nc(NS(=O)(=O)c2cccc(N3CCC34CN(C(=O)OC(C)(C)C)C4)n2)ccc1C(F)(F)F", "GROUP_LABEL": "False"}
{"MOLECULE": "Cc1ccccc1-c1nc(NS(=O)(=O)c2cccc(N3CCC[C@@H](C(=O)O)C3)n2)ccc1C(F)(F)F", "GROUP_LABEL": "False"}
{"MOLECULE": "Nc1cccc(S(=O)(=O)Nc2ccc(Cl)c(-c3ccc(F)cc3C3CC3)n2)n1", "GROUP_LABEL": "False"}
{"MOLECULE": "Cc1ccc(C#N)cc1-c1nc(NS(=O)(=O)c2cccc(N3CC(C)(O)C3)n2)ccc1Cl", "GROUP_LABEL": "False"}
{"MOLECULE": "Cc1cccc(C(F)(F)F)c1-c1nc(NS(=O)(=O)c2cccc(N)n2)ccc1Cl", "GROUP_LABEL": "False"}
{"MOLECULE": "Cc1ccccc1-c1nc(NS(=O)(=O)c2cccc(N3CCN(C(=O)OC(C)(C)C)C[C@H]3C(=O)O)n2)ccc1C(F)(F)F", "GROUP_LABEL": "False"}
{"MOLECULE": "Cc1ccc(F)cc1-c1nc(NS(=O)(=O)c2cccc(N3CCN4C[C@@H](F)C[C@@H]4C3)n2)ccc1Cl", "GROUP_LABEL": "False"}
{"MOLECULE": "Nc1cccc(S(=O)(=O)Nc2ccc(C(F)(F)F)c(-c3ccccc3C3CC3)n2)n1", "GROUP_LABEL": "False"}
{"MOLECULE": "COc1ccc(Cl)c(-c2nc(NS(=O)(=O)c3cccc(N4CC(O)C4)n3)ccc2C(F)(F)F)c1", "GROUP_LABEL": "False"}
{"MOLECULE": "Cc1ccc(OC(F)(F)F)cc1-c1nc(NS(=O)(=O)c2cccc(N)n2)ccc1Cl", "GROUP_LABEL": "True"}
{"MOLECULE": "Cc1ccc(C#N)cc1-c1nc(NS(=O)(=O)c2ccnc(N)c2)ccc1Cl", "GROUP_LABEL": "True"}
{"MOLECULE": "O=S(=O)(Nc1ccc(C(F)(F)F)c(-c2ccccc2C(F)(F)F)n1)c1cccc(N2CC(O)C2)n1", "GROUP_LABEL": "False"}
{"MOLECULE": "[2H]C([2H])([2H])c1ccccc1-c1nc(NS(=O)(=O)c2ccnc(N)c2)ccc1Cl", "GROUP_LABEL": "False"}
{"MOLECULE": "Cc1ccc(F)cc1-c1nc(NS(=O)(=O)c2cccc(N3C[C@@H](C)N[C@@H](C)C3)n2)ccc1C(F)(F)F [Example 178, Hydrochloride]", "GROUP_LABEL": "False"}
{"MOLECULE": "Cc1ccc(F)cc1-c1nc(NS(=O)(=O)c2cccc(N3CCN(C(C)(C)C)CC3)n2)ccc1C(F)(F)F", "GROUP_LABEL": "False"}
{"MOLECULE": "Cc1ccccc1-c1nc(NS(=O)(=O)c2cccc(N)n2)ccc1C", "GROUP_LABEL": "True"}
